These measurements were taken from patent US20100324130A1.

Target: PBR protein harvested from MA-10 cells (Mus musculus, UniProt P50637)
Construct: PBR protein was harvested from MA-10 cells and stocked in PBS at 10 mg/mL; endogenous in cells
Experiment: Competitive binding study against [3H]PK11195 on PBR protein
Details: amino group capped by acetyl group; [3H]PK11195 radioligand; 4° C., 90 minutes
pIC50: −log10 of the molar value.
The entries below come with measured pIC50 values attached.

# STRUCTURE, pIC50
rows = [
    ("COc1ccc(NCCCCNC(C)=O)c(CN(C(C)=O)c2cc(F)ccc2Oc2ccccc2)c1", 6.10),
    ("COc1ccc(NCCCCCCNC(C)=O)c(CN(C(C)=O)c2cc(F)ccc2Oc2ccccc2)c1", 6.46),
    ("COc1ccc(NCCCCCCCCCNC(C)=O)c(CN(C(C)=O)c2cc(F)ccc2Oc2ccccc2)c1", 6.54),
    ("COc1ccc(NCCCNC(C)=O)c(CN(C(C)=O)c2cc(F)ccc2Oc2ccccc2)c1", 6.41),
    ("COc1ccc(NCCCCCNC(C)=O)c(CN(C(C)=O)c2cc(F)ccc2Oc2ccccc2)c1", 6.08),
    ("COc1ccc(NCCCCCCCNC(C)=O)c(CN(C(C)=O)c2cc(F)ccc2Oc2ccccc2)c1", 6.40),
    ("COc1ccc(NCCCCCCCCNC(C)=O)c(CN(C(C)=O)c2cc(F)ccc2Oc2ccccc2)c1", 6.62),
]
